Experiment: JHH-DIPG-1 glioma cell viability, MIPE5.0 library, CellTiter-Glo luminescence, qHTS (AID 1347067);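 further: cells exposed to compound for 48 hours before readout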
Settings: JHH-DIPG-1 glioma viability, CellTiter-Glo ATP luminescence
Results filed as inconclusive are left out. Calls of active or inactive are those of the source. Cut-off not given; nearly all actives show AC50 up to about 26 µM.
Respond only with the outcome that fits, drawn from active, inactive

Known results for compounds:
>>> label("COC(=O)[C@]12CCC(C)(C)C[C@H]1[C@H]1C(=O)C=C3[C@@]4(C)C=C(C#N)C(=O)C(C)(C)[C@@H]4CC[C@@]3(C)[C@]1(C)CC2")
"active"
>>> label("CC1(C)CC[C@]2(NC(=O)C(C)(F)F)CC[C@]3(C)[C@H](C(=O)C=C4[C@@]5(C)C=C(C#N)C(=O)C(C)(C)[C@@H]5CC[C@]43C)[C@@H]2C1")
"active"
>>> label("O=C(O)CNC(=O)c1c(O)c2ccccc2n(Cc2ccccc2)c1=O")
"inactive"
>>> label("Cc1sc2c(c1C)C(c1ccc(Cl)cc1)=N[C@@H](CC(N)=O)c1nnc(C)n1-2")
"inactive"
>>> label("O=S(=O)(CC1CS1)c1ccc(Oc2ccccc2)cc1 (stereo not drawn)")
"active"

## Input What did the test return for CCC1(c2ccc(N)cc2)CCC(=O)NC1=O (stereo not drawn) ?
## Output inactive

## Input Try the compound COC[C@H]1OC(=O)c2coc3c2[C@@]1(C)C1=C(C3=O)C2CCC(=O)[C@@]2(C)C[C@H]1OC(C)=O (stereo partly drawn)
## Output active

## Input Try the compound `CN(C)[C@@H]1C(=O)C(C(N)=O)=C(O)[C@@]2(O)C(=O)C3=C(O)c4c(O)cccc4[C@@](C)(O)[C@H]3[C@H](O)[C@@H]12`
## Output inactive

====

Assay: SU-DIPG-VI glioma cell viability, MIPE4.0 library, CellTiter-Glo luminescence, qHTS (AID 1347066);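 further: cells exposed to compound for 48 hours before readout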
Conditions: CellTiter-Glo ATP luminescence
Results filed as inconclusive are left out. The source made the active and inactive calls. No cut-off is given here; in the data, nearly all actives have AC50 up to about 30 µM.
Respond only with the outcome that fits, drawn from T for active, F for inactive

Known results for compounds:
>>> label("CN(C)NC(=O)CCC(=O)O")
"F"
>>> label("CNCC(O)c1ccc(O)cc1 (configuration not stated)")
"F"
>>> label("COc1ccc(C(=O)N2CCCC2=O)cc1")
"F"
>>> label("C[C@H]1CCC/C=C/C2C[C@H](O)C[C@H]2[C@H](O)/C=C/C(=O)O1 (some centres not stated)")
"F"
>>> label("CN(C)CCN(C)CCc1ccc(Cl)c(Cl)c1")
"F"

## Input What did the test return for `COc1cc2cc(c1Cl)N(C)C(=O)C[C@H](OC(=O)C(C)C)[C@]1(C)O[C@@H]1[C@H](C)[C@@H]1C[C@@](O)(NC(=O)O1)[C@H](OC)/C=C/C=C(\C)C2` ?
## Output F

## Input Try the compound `C[C@]12CC[C@H]3[C@@H](CC[C@@]45O[C@@H]4C(O)=C(C#N)C[C@]35C)[C@@H]1CC[C@@H]2O`
## Output F

## Input Try the compound `CCN(CC)C(=O)c1ccc(C2=CC3(CCNCC3)Oc3cccc(O)c32)cc1`
## Output F

## Input Try the compound `O=S(=O)(F)Cc1ccccc1`
## Output F

## Input Try the compound `C/C=C(/C)C(=O)O[C@H]1C(C)=C2[C@H]([C@@H]1OC(=O)CCCCCCC)[C@@](C)(OC(C)=O)C[C@H](OC(=O)CCC)[C@@]1(O)[C@H]2OC(=O)[C@@]1(C)O`
## Output T

## Input Try the compound `CCOC(=O)c1c(/C(C#N)=C\N)c2ccc(Cl)c(Cl)c2n1C`
## Output F

## Input Try the compound `C[N+](C)(C)CC(=O)O`
## Output F

## Input Try the compound `CC(C)(O)C(=O)Nc1ccc([N+](=O)[O-])c(C(F)(F)F)c1`
## Output F

## Input Try the compound `CC(=O)Nc1ccc(OC[C@](C)(O)C(=O)Nc2ccc([N+](=O)[O-])c(C(F)(F)F)c2)cc1`
## Output F

## Input Try the compound O=P1(NCCCl)OCCCN1CCCl (configuration not stated)
## Output F

## Input Try the compound `C[C@@H]1[C@H](O)[C@@H](C)C=CC=CCCC=CC=CC=CC=C[C@H](O[C@H]2O[C@@H](C)[C@H](O)[C@@H](N)[C@H]2O)CC2O[C@](O)(C[C@@H](O)[C@H](O)CC[C@@H](O)C[C@@H](O)C[C@@H](O)CC(=O)O[C@H]1C)C[C@H](O)[C@H]2C(=O)O`
## Output F

## Input Try the compound CCC(=O)OC1CCC2C3CCC4=CC(=O)CC[C@@]4(C)C3CC[C@]12C (some centres not stated)
## Output F

Every entry's value here was drawn from PubChem BioAssay.
